Assay: compounds boosting diaphorase resazurin reduction – biochemical, uHTS, resorufin fluorescence, counter-screen for diaphorase-coupled primary assays, primary screen (AID 1229)
Settings: Diaphorase/resazurin coupled assay, 16 min, at 20 µM, stronger effect = higher value, 1 = vehicle wells, 0 = NADH-free wells
The campaign covered roughly 190,000 compounds. About 10 (0.005%) were called active. The entries come from a sample that favours actives as a whole.
Measured activation factor, listed per entry.
Give the figure only, with no unit attached.

Challenge: Quote activation factor reported for CCn1cc(-c2cc(C(=O)O)on2)c(C)n1 please.
Response given: 0.9

Challenge: Supply activation factor value. Item: CONc1nc2nonc2nc1NOC
Response given: 0.9

Challenge: Assign activation factor to the following record: Cc1cccc(OCCNC(=O)CSc2ccc(C(F)(F)F)cc2[N+](=O)[O-])c1
Response given: 0.9

Challenge: Respond only with activation factor recorded for CCOc1ccc(NS(=O)(=O)c2cc(C)c(C)cc2C)cc1
Response given: 0.8

New cases:
Challenge: Input Fc1cc(Br)ccc1NC(=S)Nc1cccnc1 , output reported activation factor.
Response given: 1

Challenge: Tell me its activation factor given COc1ccc(-c2csc(-c3cccs3)n2)cc1OC as the entry.
Response given: 0.8

Challenge: Dear colleague, please send me the reported activation factor for CCC(C)N(C(=O)COC(=O)C1C(C(=O)OC)=C(C)NC(C)=C1C(=O)OC)C1CCS(=O)(=O)C1 (configuration not stated) when you can.
Response given: 0.9

Challenge: Give activation factor for the following molecule: CCOc1ccc(C(=O)NC(=S)Nc2ccc(N3CCOCC3)c(Cl)c2)cc1[N+](=O)[O-]
Response given: 0.8

Challenge: Give the value of activation factor reported for the following: NS(=O)(=O)c1ccc(NC(=S)NNC(=O)c2cccs2)cc1
Response given: 0.8

Challenge: State its activation factor: O=C(Nc1ccc(Cl)cn1)c1ccc2c(c1)OCCO2
Response given: 1

Challenge: Recall and state the measured activation factor for O=C(NCCCn1ccnc1)c1cc(-c2ccccc2)on1 .
Response given: 1

Challenge: Please list activation factor recorded for the molecule Cc1ccc(N(Cc2cc3ccccc3[nH]c2=O)C(=O)c2cccs2)cc1
Response given: 0.9

---

Assay: compounds boosting diaphorase resazurin reduction – biochemical, uHTS, resorufin fluorescence, counter-screen for diaphorase-coupled primary assays, primary screen (AID 1229)
Conditions: Diaphorase/resazurin coupled assay, 16 min, at 20 µM, stronger effect = higher value, 1 = vehicle wells, 0 = NADH-free wells
Among all 190,000 compounds or so, about 10 (0.005%) were called active. For the sample, actives were picked, then their nearest neighbours and some compounds at random.
observation_type: activation factor

Solved cases (2 shown):
Challenge: Note activation factor for the compound shown: CCO[C@H]1OC(C(=O)NCc2ccccc2)=C[C@@H](c2coc3ccccc3c2=O)[C@@H]1CCCO
Response given: 0.8 (inactive)

Challenge: Fill in reported activation factor for this entry: O=C1/C(=C/c2cccs2)CCC1C1CCCC1 (stereo not drawn)
Response given: 0.9 (inactive)

With those in mind, consider the next compound.
Challenge: Dear colleague, please send me the reported activation factor for O=C(Cc1cccs1)Nc1nnc(SCc2ccc(F)cc2)s1 when you can.
Response given: 0.9 (inactive)

---

Experiment: compounds boosting diaphorase resazurin reduction – biochemical, uHTS, resorufin fluorescence, counter-screen for diaphorase-coupled primary assays, primary screen (AID 1229)
Conditions: Diaphorase/resazurin coupled assay, 16 min, at 20 µM, stronger effect = higher value, 1 = vehicle wells, 0 = NADH-free wells
Out of some 190,000 compounds screened, about 10 (0.005%) were called active. This is one part of a sample in which actives are shown more often than they occur.
observation_type: activation factor
# answer = number (no unit)

Below, each entry is followed by its recorded activation factor result.
Challenge: Please report the measured activation factor for CCCN=C1NC(=O)C(CC(=O)NCCc2ccc(OC)c(OC)c2)S1 (stereo unspecified)
Response given: 0.9

Challenge: Answer with the recorded activation factor of Nc1[nH]c(=S)nc2nc(-c3ccccc3)c(-c3ccccc3)nc12 only.
Response given: 0.8

Challenge: For the compound Cc1ccnc(NC(=O)CCC(=O)N(CC(=O)NCCc2ccccc2)Cc2cccs2)c1 , report activation factor.
Response given: 1

Challenge: Consider the compound COC(=O)/C(C#N)=C/c1occc1C . State its measured activation factor.
Response given: 0.9

Challenge: Fill in activation factor for record Cc1cccc(C(=O)OCC(=O)NCC(C)C)c1O
Response given: 0.9

Okay, next one:
Challenge: Supply reported activation factor belonging to this compound: CNC(=S)NNC(=O)c1cccn(Cc2ccccc2)c1=O
Response given: 1

Source listed as PubChem BioAssay AID1229.
